Tested on: EPHB4
particulars: concentration: 1 μM, replicates: in singlicate; n = 1;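 note: KINOMEscan kinase panel screen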
Kindly state %Inh for each of the entries shown.
Could you give me the number in %? Just the number is fine.

Please look up its %Inh: CCS(=O)(=O)c1ccc(OC)c(Nc2nccc(-c3c(-c4cccc(NC(=O)c5c(F)cccc5F)c4)nn4ncccc34)n2)c1
12

Please look up its %Inh: Cc1ccc(F)c(C(=O)Nc2cccc(-c3nn4ccccc4c3-c3ccnc(Nc4cccc(F)c4)n3)c2)c1F
10

Please look up its %Inh: C[C@@H]1CC[C@@H](C(=O)Nc2ccccc2)CN1c1cc(-c2ccc3c(N)n[nH]c3c2)nc(N)n1
10

Please look up its %Inh: Nc1ncc(-c2ccc3nccc(-c4ccncc4)c3c2)cc1S(=O)(=O)N1CCOCC1
3

Please look up its %Inh: Cl.c1ccc(-c2ccc3c(Nc4ccc5[nH]ccc5c4)ccnc3c2)nc1
5

Please look up its %Inh: COc1cccc(NC(=O)NC2CCN(c3ccnc(Nc4cc(OC)c(OC)c(OC)c4)n3)C2)c1 (centres unmarked)
7

Please look up its %Inh: Cl.NC(=O)c1cccc(Nc2nccc(Nc3ccc(Oc4c(Cl)cccc4Cl)c(Cl)c3)n2)c1
0

Please look up its %Inh: Cc1cccc(NC(=O)Nc2ccc(Oc3ncnc4ccn(C)c34)cc2)c1
0

Please look up its %Inh: CC(C)(C)c1ccc2nccc(Nc3cccc(O)c3)c2c1
37

Please look up its %Inh: Cl.Cl.NCC(C(=O)Nc1cc(Br)c(-c2ccnc3[nH]ccc23)s1)c1ccccc1 (centres unmarked)
42

Please look up its %Inh: Cc1ccc(C(=O)N2CC[C@@H](O)C2)cc1-n1c(C)cc(OCc2ccc(F)cc2F)c(Br)c1=O
0

Please look up its %Inh: COc1cc(Nc2nccc(N3CCC(NC(=O)c4cc5ccccc5s4)C3)n2)cc(OC)c1OC (centres unmarked)
15

Please look up its %Inh: Oc1cc(Nc2ccnc3cc(I)ccc23)ccc1F
45

Please look up its %Inh: Clc1ccc(-c2nn3ncccc3c2-c2ccnc(Nc3ccc4c(c3)OCCO4)n2)cc1
0

Please look up its %Inh: O=C(Nc1cccc(-c2nn3ccccc3c2-c2ccnc(Nc3cccc(F)c3)n2)c1)c1c(F)ccc(F)c1Cl
8

Please look up its %Inh: Cc1ccc(C)c(NC(=O)NC2CCN(c3ccnc(Nc4ccc(F)cc4)n3)C2)c1 (centres unmarked)
6

Please look up its %Inh: CNC(=O)c1ccccc1Nc1nc(Nc2ccc(N3CCOCC3)cc2)ncc1Cl.Cl
46

====

Tested on: STK33
particulars: concentration: 1 μM, replicates: in singlicate; n = 1
Kindly state %Inh for each of the entries shown.
Could you give me the number in %? Just the number is fine.

Please look up its %Inh: COc1cc(Nc2nccc(N3CCC(NC(=O)Nc4cccc(C(C)=O)c4)C3)n2)cc(OC)c1OC (stereo not drawn) [GSK1379753]
0

Please look up its %Inh: Cc1cccc(Nc2nc(N[C@H]3CCNC3)ncc2C(N)=O)c1.Cl [GSK2197149]
40

Please look up its %Inh: O=C(O)C(F)(F)F.O=C(O)C(F)(F)F.O=c1[nH]ccc2nc(N[C@@H]3CCCNC3)nc(Nc3ccc(S(=O)(=O)N4CCOCC4)cc3)c12 [GSK2177277]
98.6

Please look up its %Inh: CC(C)(C)c1ccc2nccc(Nc3cccc(O)c3)c2c1 [GW856795]
0

Please look up its %Inh: CCCCc1nn2ncccc2c1-c1ccnc(Nc2ccc(N3CCN(C)CC3)cc2)n1 [GW684941]
39

Please look up its %Inh: Cc1ccc(S(=O)(=O)Nc2ccc(Nc3nccc(Nc4cccc5[nH]ncc45)n3)cc2)cc1 [GSK581271]
0
